Subject of test: bCPA1 (Bos taurus, UniProt P00730)
Sequence (P00730 111-419): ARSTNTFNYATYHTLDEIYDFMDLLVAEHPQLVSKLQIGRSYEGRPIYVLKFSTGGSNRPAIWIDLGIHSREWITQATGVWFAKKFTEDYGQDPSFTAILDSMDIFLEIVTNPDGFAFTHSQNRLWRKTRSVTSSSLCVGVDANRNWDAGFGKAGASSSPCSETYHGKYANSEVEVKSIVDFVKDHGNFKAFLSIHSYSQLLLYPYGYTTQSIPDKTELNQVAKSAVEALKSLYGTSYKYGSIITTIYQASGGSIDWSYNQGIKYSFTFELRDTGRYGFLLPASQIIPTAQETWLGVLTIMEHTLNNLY
Experimental protocol: Ki determination, tight-binding inhibition of metallocarboxypeptidase
Assay type: biochemical, bovine
Condition label: natural isoforms; apparent Ki, without correction by competing assays; read-out: derived Ki towards bCPA (apparent Ki values)
pKi: −log10 of the molar value. No end group written: not given here.
Endpoint: pKi

# Substance, pKi
records = [
    ("NvCIb: natural isoform of NvCI with N→K substitution at the 11th residue (FHVPDDRPCIKPGRCPLVPDATCTFVCKAADNDFGYECQHVWTFEGQRVGCYA; three intrachain disulphides)", 10.42),
    ("NvCI: 53-residue, three-disulphide proteinaceous metallocarboxypeptidase inhibitor from the marine snail Nerita versicolor; major isoform; UniProt P86912 (FHVPDDRPCINPGRCPLVPDATCTFVCKAADNDFGYECQHVWTFEGQRVGCYA; disulfide (positions not given here); also: three disulphides, pairing not given here; UniProt P86912 1-53, looked up)", 10.57),
]

I = NvCIc: minor natural isoform, lacks the N-terminal Phe as compared to NvCIa (HVPDDRPCINPGRCPLVPDATCTFVCKAADNDFGYECQHVWTFEGQRVGCYA; three intrachain disulphides)
II = NvCId: minor natural isoform, lacks the N-terminal Phe as compared to NvCIb (HVPDDRPCIKPGRCPLVPDATCTFVCKAADNDFGYECQHVWTFEGQRVGCYA; three intrachain disulphides)
Hey, which is lower on measured pKi, I or II ? # answer = label of selected item
I
(I: 10.31, II: 10.66)
